MEASURED TARGET: T1, ALK4 (activin type I receptor) (UniProt P36896)
T1 sequence (looked up): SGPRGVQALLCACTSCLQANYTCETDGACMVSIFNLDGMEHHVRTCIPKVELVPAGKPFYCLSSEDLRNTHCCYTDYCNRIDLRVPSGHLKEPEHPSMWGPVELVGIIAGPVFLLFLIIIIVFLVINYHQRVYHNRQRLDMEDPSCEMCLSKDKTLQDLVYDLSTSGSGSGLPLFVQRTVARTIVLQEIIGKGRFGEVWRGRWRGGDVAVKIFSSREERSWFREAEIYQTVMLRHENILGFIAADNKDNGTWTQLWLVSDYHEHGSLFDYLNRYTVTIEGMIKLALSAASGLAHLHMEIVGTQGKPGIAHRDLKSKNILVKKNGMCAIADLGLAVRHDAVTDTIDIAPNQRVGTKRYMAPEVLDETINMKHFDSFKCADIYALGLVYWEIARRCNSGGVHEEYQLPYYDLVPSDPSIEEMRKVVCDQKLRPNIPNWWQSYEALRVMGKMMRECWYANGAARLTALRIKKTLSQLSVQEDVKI
PROTOCOL DESCRIPTION: cell-based or functional assay
Overview of reported % Activin Activity (A3-luciferase assay in 293T cells) (% of wild type activin-A) across a group of binders:
In your answer, state the number alone without any accompanying words.

Consider the worked cases shown below.
BINDER	RECORDED MEASUREMENT
activin-A V62A/I63A (ligand, human, UniProt P08476 311-426, looked up) GLECDGKVNICCKKQFFVSFKDIGWNDWIIAPSGYHANYCEGECPSHIAGTSGSSLSFHSTAANHYRMRGHSPFANLKSCCVPTKLRPMSMLYYDDGQNIIKKDIQNMIVEECGCS	83
activin-A Y35A (ligand, human, UniProt P08476 311-426, looked up) GLECDGKVNICCKKQFFVSFKDIGWNDWIIAPSGAHANYCEGECPSHIAGTSGSSLSFHSTVINHYRMRGHSPFANLKSCCVPTKLRPMSMLYYDDGQNIIKKDIQNMIVEECGCS	101
A/C-1 chimeric activin A/activin C protein (ligand, human, UniProt P08476 311-426, looked up) GLECDGKVNICCKKQFFVSFKDIGWNDWIIAPSGYHANYCEGECPLHIAGMPGIAASFHSTVINHYRMRGHSPFANLKSCCVPTKLRPMSMLYYDDGQNIIKKDIQNMIVEECGCS	104

Here is the next item to consider.
// query Request the reported % Activin Activity (A3-luciferase assay in 293T cells) (% of wild type activin-A) associated with A/C-2.3 chimeric activin A/activin C protein (ligand, human, UniProt P08476 311-426, looked up) GLECDGKVNICCKKQFFVSFKDIGWNDWIIAPSGYHANYCEGECPSHIAGTSGSSLSFHSTVINHLKANTHSPFANLKSCCVPTKLRPMSMLYYDDGQNIIKKDIQNMIVEECGCS
// result 87
